# procedure.summary: Human plasma stability assay (LC-MS/MS)
# Format: in vitro ADME
# reported.conditions: 37 °C, pH 7.4, read-out: t1/2 in human plasma
parameter: half-life at 5 µM

molecule	measurement
CC/C=C\C/C=C\C/C=C\C/C=C\C/C=C\C/C=C\CCC(=O)Oc1ccc(-c2cc(=O)c3c(O)cc(O)cc3o2)cc1 [4′-DHA-apigenin hybrid, 4′-DHA-apigenin]	~13 min

====

# procedure.summary: Serum pharmacokinetics after oral administration in C57BL/6J mice
# Assay type: in vivo
# reported.conditions: male, mouse, oral 50 mg/kg in olive oil, normalized to fraction absorbed, read-out: Vz/F
parameter: Vd/F (L)

                    structure_smiles_string  parameter  measurement
0  CC/C=C\C/C=C\C/C=C\C/C=C\C/C=C\C/C=C\CCC(=O)Oc1ccc(-c2cc(=O)c3c(O)cc(O)cc3o2)cc1       Vd/F         66.5
1      O=c1cc(-c2ccc(O)cc2)oc2cc(O)cc(O)c12       Vd/F          106
